PROTOCOL TEXT: P-glycoprotein substrates identified in KB-8-5-11 adenocarcinoma cell line, qHTS therapeutic library screen (AID 1346987); further: nearly all actives have a fitted effect of over 65% in size; further: potency means the concentration at half of the fitted maximal effect
ASSAY CONDITIONS: KB-8-5-11 (P-gp overexpressing) viability, CellTiter-Glo, 72 h; series mostly up to 44.5 µM
Records with an inconclusive call do not appear. Active and inactive are the calls of the source. The call rests on the fitted dose curve; in most records, active means well fitted inhibition curve with a large enough effect; inconclusive means small, poorly fitted or top-dose-only effect; inactive means flat fitted curve, though single readings scatter.
MEASUREMENT KIND: Potency

Cc1cnc(-c2cnc(NCCNc3ccc(C#N)cn3)nc2-c2ccc(Cl)cc2Cl)[nH]1 = inactive
C[C@H]1C[C@@H]2[C@@H]([C@@H](O)C[C@@]3(C)[C@H]2CC[C@]3(O)C(=O)CO)[C@@]2(C)C=CC(=O)C=C12 = inactive
CC1(C)O[C@@H]2C[C@@H]3[C@H]4C[C@@H](F)C5=CC(=O)C=C[C@]5(C)[C@@]4(F)[C@@H](O)C[C@]3(C)[C@]2(C(=O)CO)O1 = inactive
C[C@@H](Oc1cc(-n2cnc3ccc(CN4CCN(C)CC4)cc32)sc1C(N)=O)c1ccccc1C(F)(F)F = 118 nM (active)
Cc1[nH]c2ccccc2c1CCNCc1ccc(C=CC(=O)NO)cc1 = 935 nM (active)

Item CCN1CCN(CC(=O)Nc2ccc(-c3cccc4c(=O)cc(N5CCOCC5)oc34)c3sc4ccccc4c23)CC1 : provide Potency
2960 nM (active)

Answer with the recorded Potency for the compound listed here: O=c1[nH]nc(Sc2ncc([N+](=O)[O-])s2)n1-c1ccc2c(c1)OCCO2
18700 nM (active)

For the compound CC(C)=CCCC(C)=CCCC(C)=CCSc1ccccc1C(=O)O , report Potency.
1320 nM (active)

----------
PROTOCOL TEXT: Quantitative High-Throughput drug screen in 47 multiple myeloma cell lines against the NCATS MIPE library collection: ARD_JJKsccE7 cell viability assay (AID 1918929; further: potency means the concentration at half of the fitted maximal effect)
ASSAY CONDITIONS: ARD myeloma cell line viability, CellTiter-Glo, 48 h; series mostly up to 45.8 µM
Excerpt: PI: Beverly A. Mock Ph.D. Laboratory of Cancer Biology and Genetics, Center for Cancer Research, National Cancer Institute, National Institute of Health, Bethesda, Maryland […] 5; Detector; 425V; Luminescence; Viewlux PerkinElmer. […] 1. […] Briefly, the corresponding myeloma cell lines were screened in 1,536-well plates with 500 cells, 5-uL per well for inhibition of cell viability (assessed by measuring ATP levels with CellTiterGlo). […]
Inconclusive results are not listed. Activity calls are given as the source filed them. Calls come from the whole dose curve; as a rule, active = well fitted cell-killing curve with a large enough effect; inconclusive = small, poorly fitted or top-dose-only effect, or effect the other way; inactive = no such curve, though single readings can be large or run the other way.
MEASUREMENT KIND: Potency

Use the examples below as a reference point.
CCCCCN(CCC12CC3CC(CC(C3)C1)C2)C(=O)NCCCc1ccncc1 = 11.8 µM (active)
CC[C@H]1CN2CCc3cc(OC)c(OC)cc3[C@H]2C[C@@H]1C[C@@H]1NCCc2cc(OC)c(OC)cc21 = 0.296 µM (active)
CC(C)[C@H](C(=O)Nc1ccc(C(=O)NO)cc1)c1ccccc1 = 0.418 µM (active)
CC(=O)OCCN1C(=O)c2c(C)nc3ccc(S(=O)(=O)N4CCOCC4)cc3c2C1=O = inactive
CC(C)(O)CCc1ccc(OCc2cc(-c3cccc(OC(F)F)c3)c3ncccc3c2)cc1 = inactive

Look up and report measured Potency for this entry: Nc1ccn([C@@H]2CS[C@H](CO)O2)c(=O)n1
inactive

Find the measured Potency of CCC1=C[C@@H]2CN(C1)Cc1c([nH]c3ccccc13)[C@@](C(=O)OC)(c1cc3c(cc1OC)N(C)[C@@H]1[C@@](O)(C(=O)OC)[C@H](OC(C)=O)[C@]4(CC)C=CCN5CC[C@]31[C@@H]54)C2 and report it.
0.0074 µM (active)

Note Potency for the compound shown: COc1cccc2nc(-c3cccs3)nc(NN3C(=O)C=C(C)C3=O)c12
1.66 µM (active)

Return Potency for the following compound: CN1CCN(c2ccc3nc(-c4c(N)c5c(F)cccc5[nH]c4=O)[nH]c3c2)CC1
14.8 µM (active)

----------
Test system: UISO
PROTOCOL TEXT: qHTS assay to identify novel small-molecules to repurpose for Merkel cell carcinoma treatment (AID 1296009); further: nearly all actives have a fitted effect of over 60% in size
ASSAY CONDITIONS: MCC and control cell lines, CellTiter-Glo viability, 72 h; series mostly up to 46 µM
Inconclusive results are not listed. Active and inactive are the calls of the source. Calls come from the whole dose curve; as a rule, active = well fitted inhibition curve with a large enough effect; inconclusive = small, poorly fitted or top-dose-only effect; inactive = flat fitted curve, though single readings scatter.
Thanks in advance; please answer with one of these: Yes for active, No for inactive

Known results for molecules:
O=C(c1cncc(Br)c1)N1CCC(N2CCCC2)CC1 = No
CS(=O)(=O)c1ccc(-c2cnc(N)c(C(=O)Nc3ccccc3)n2)cc1 = No
CCc1cc2c(cc1N1CCC(N3CCOCC3)CC1)C(C)(C)c1[nH]c3cc(C#N)ccc3c1C2=O = No
CC1(C)CCC(c2ccc(Cl)cc2)=C(CN2CCN(c3ccc(C(=O)NS(=O)(=O)c4ccc(N[C@H](CCN5CCOCC5)CSc5ccccc5)c(S(=O)(=O)C(F)(F)F)c4)cc3)CC2)C1 = No
CNC(=O)CN1CCC(Oc2cc3c(Nc4cccc(Cl)c4F)ncnc3cc2OC)CC1 = Yes
CC(=O)SC[C@@H](C)C(=O)N1CCC[C@H]1C(=O)N[C@@H](Cc1ccccc1)C(=O)O = No
CCOc1cc2ncc(C#N)c(Nc3ccc(F)c(Cl)c3)c2cc1NC(=O)C=CCN(C)C = Yes
O=C(C=Cc1cccc(S(=O)(=O)Nc2ccccc2)c1)NO = Yes

Recorded test outcome, item Cc1[nH]c2ccccc2c1CCNCc1ccc(C=CC(=O)NO)cc1
Yes

----------
PROTOCOL TEXT: Quantitative High-Throughput drug screen in 47 multiple myeloma cell lines against the NCATS MIPE library collection: MM1S_ATCC cell viability assay (AID 1918980); further: potency means the concentration at half of the fitted maximal effect; nearly all actives have a fitted effect of over 45% in size
ASSAY CONDITIONS: MM1S myeloma viability, CellTiter-Glo ATP luminescence, 48 h; series mostly up to 45.8 µM
Results filed as inconclusive are left out. The source made the active and inactive calls. Calls come from the whole dose curve; as a rule, active = well fitted cell-killing curve with a large enough effect; inconclusive = small, poorly fitted or top-dose-only effect, or effect the other way; inactive = no such curve, though single readings can be large or run the other way.
I would appreciate it if you answered using one of these outcomes: active, inactive

C1=CCOCc2cc(ccc2OCCN2CCCC2)Nc2nccc(n2)-c2cccc(c2)OCC1 = active
CN1CCN(c2ccc3nc(-c4c(N)c5c(F)cccc5[nH]c4=O)[nH]c3c2)CC1 = active
Cc1nc(Nc2n[nH]c3c2CN(C(=O)N[C@H](CN(C)C)c2ccccc2)C3(C)C)c2sccc2n1 = active
CC(C)(C)OC(=O)Nc1ccc(-c2cc(C(=O)NCCCCCCC(=O)NO)no2)cc1 = active
CC1(C)CC(=O)c2c(C(F)(F)F)nn(-c3ccc(C(N)=O)c(NC4CCC(OC(=O)CN)CC4)c3)c2C1 (configuration not stated) = active
O=C(O)[C@H](Cc1c[nH]c2ccccc12)N1C(=O)c2ccccc2C1=O = active
COC(=O)c1ccc2c(C(=Nc3ccc(N(C)C(=O)CN4CCN(C)CC4)cc3)c3ccccc3)c(O)[nH]c2c1 = active
OCc1ccc(-c2ccc(-c3ccc(CO)s3)o2)s1 = active
O=C(O)c1ccc2cc(-c3ccc(O)c(C45CC6CC(CC(C6)C4)C5)c3)ccc2c1 = active
CC(C)(O)CCc1ccc(OCc2cc(-c3cccc(OC(F)F)c3)c3ncccc3c2)cc1 = active

Answer briefly: the call reported for COc1cc(Nc2ncc(F)c(Nc3ccc4c(n3)N(COP(=O)(O)O)C(=O)C(C)(C)O4)n2)cc(OC)c1OC in this assay.
active

Name the outcome recorded for CC[C@@]1(O)C(=O)OCc2c1cc1n(c2=O)Cc2cc3cc(O)ccc3nc2-1 in the assay.
active

Assay result, entry CCCCc1nc2cc(C=CC(=O)NO)ccc2n1CCN(CC)CC — outcome?
active

What did the test return for O=C(O)c1ccc2c(c1)nc(Nc1cccc(Cl)c1)c1ccncc12 ?
active

Lab log entry: CC=CC1=C(C(=O)O)N2C(=O)[C@H](NC(=O)[C@H](N)c3ccc(O)cc3)[C@@H]2SC1 — outcome as called in the assay?
active

Check the results log: what was the call for C[C@]1(CO)CN(c2cc(C(=O)Nc3ccc4c(c3)-c3c(c(C(N)=O)nn3-c3ccc(F)cc3)CC4)c(Cl)cn2)C[C@@]1(C)CO ?
active

----------
PROTOCOL TEXT: qHTS Screen of the MIPE 4.0 Collection Against Ewings Sarcoma (TC71) (AID 1259253); further: nearly all actives have a fitted effect of over 40% in size
ASSAY CONDITIONS: TC71 Ewing sarcoma viability, CellTiter-Glo, 48 h; series mostly up to 45.8 µM
Records with an inconclusive call do not appear. Active and inactive are the calls of the source. The call rests on the fitted dose curve; in most records, active means well fitted inhibition curve with a large enough effect; inconclusive means small, poorly fitted or top-dose-only effect; inactive means no such curve, though single readings can be large or run the other way.
API: response.call in t = active, f = inactive

CNC(=O)c1ccc(N2C(=S)N(c3cnc(C#N)c(C(F)(F)F)c3)C(=O)C23CCC3)cc1F = t

Name the outcome recorded for Nc1ccccc1NC(=O)c1ccc(CNC(=O)OCc2cccnc2)cc1 in the assay.
t

I would be grateful if you could indicate the recorded call for C[C@H]1C[C@@H]2[C@@H]([C@@H](O)C[C@@]3(C)[C@H]2CC[C@]3(O)C(=O)CO)[C@@]2(C)C=CC(=O)C=C12 .
f

Hi, do you know how CC1(C)O[C@@H]2C[C@@H]3[C@H]4C[C@@H](F)C5=CC(=O)C=C[C@]5(C)[C@@]4(F)[C@@H](O)C[C@]3(C)[C@]2(C(=O)CO)O1 came out in this test?
f

Could you kindly confirm the outcome this assay logged for Cn1cncc1[C@@](N)(c1ccc(Cl)cc1)c1ccc2c(c1)c(-c1cccc(Cl)c1)cc(=O)n2C ?
t

Given CCN(CC)CCNC(=O)c1ccc2nc(-c3ccccc3)c(-c3ccc(CN4CCC(n5c(=O)[nH]c6ccccc65)CC4)cc3)nc2c1 , state the outcome it received in this test.
t

Any idea what this test logged for Nc1nccc(Oc2ccc(NC(=O)c3c[nH]cc(-c4ccc(F)cc4)c3=O)cc2F)c1Cl ?
t

Would you mind telling me which call this test gave O=C(O)Cn1nnc(-c2cc(N3CCC(Oc4cc(F)ccc4Br)CC3)no2)n1 ?
f
